- target or system: mNPSR (Mus musculus, UniProt Q8BZP8)
- protocol summary: Ca+2 mobilization assay, HEK 293T mNPSR cells
- Format: cell-based
Where no end group is shown, it is not given here.
measured property: pEC50
Numbers only, as −log10 of the molar value.

Query: If you can, please state the reported pEC50 value of SFRNGV-NH2 [compound 1, SerPheArgAsnGlyVal-NH2] .
Response: 8.69

* * *

- target or system: mNPSR (Mus musculus)
- Sequence (Q8BZP8 1-371): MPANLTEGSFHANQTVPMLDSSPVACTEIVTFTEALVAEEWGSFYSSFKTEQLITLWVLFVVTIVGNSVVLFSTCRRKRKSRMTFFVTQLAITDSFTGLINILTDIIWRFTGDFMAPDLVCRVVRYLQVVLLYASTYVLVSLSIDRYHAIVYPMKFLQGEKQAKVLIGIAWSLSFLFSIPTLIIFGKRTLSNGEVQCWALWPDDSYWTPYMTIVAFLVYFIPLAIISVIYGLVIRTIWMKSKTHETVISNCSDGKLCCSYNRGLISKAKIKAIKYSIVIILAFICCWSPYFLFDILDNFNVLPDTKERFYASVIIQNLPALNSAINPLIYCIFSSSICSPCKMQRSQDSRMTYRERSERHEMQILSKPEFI
- protocol summary: cAMP accumulation assay
- Type: cell-based
Where no end group is shown, it is not given here.
measured property: EC50 (nM)
One number for each entry, in nM.

Query: If you can, please state the reported EC50 value of SFRNGV-NH2 [compound 1, SerPheArgAsnGlyVal-NH2] .
Response: 13.4

* * *

- target or system: hNPSR-107I (Homo sapiens, UniProt Q6W5P4, N107I)
- Sequence (Q6W5P4 1-371 N107I): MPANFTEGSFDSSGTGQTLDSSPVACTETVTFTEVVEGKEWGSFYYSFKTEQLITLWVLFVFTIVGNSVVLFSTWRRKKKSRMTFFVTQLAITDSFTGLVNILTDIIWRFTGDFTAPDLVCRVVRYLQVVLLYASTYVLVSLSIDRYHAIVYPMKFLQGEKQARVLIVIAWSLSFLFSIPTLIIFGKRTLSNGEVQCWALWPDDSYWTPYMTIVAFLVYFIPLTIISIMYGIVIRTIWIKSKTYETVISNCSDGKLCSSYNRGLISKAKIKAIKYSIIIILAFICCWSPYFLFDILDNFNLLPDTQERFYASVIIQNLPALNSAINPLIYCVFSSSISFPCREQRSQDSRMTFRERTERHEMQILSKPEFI
- protocol summary: Ca+2 mobilization assay, CHO-Gα16 hNPSR-107I cells
- Format: cell-based
Where a SMILES comes first, the peptide text is derived from it.
measured property: pEC50
Give bare numbers, as −log10 of the molar value.

Query: If you can, please state the reported pEC50 value of NCCCC[C@H](NC(=O)[C@H](Cc1ccccc1)NC(=O)[C@@H](N)CO)C(=O)N[C@@H](CC(N)=O)C(N)=O [compound 4, SerPheLysAsn-NH2] (H-SFKN-NH2) .
Response: 8.52

* * *

- target or system: hNPSR-107I (Homo sapiens, UniProt Q6W5P4, N107I)
- protocol summary: cAMP accumulation assay
- Assay type: cell-based
Where a SMILES comes first, the peptide text is derived from it.
measured property: pEC50
Numbers only, as −log10 of the molar value.

Query: If you can, please state the reported pEC50 value of NCCCC[C@H](NC(=O)[C@H](Cc1ccccc1)NC(=O)[C@@H](N)CO)C(=O)N[C@@H](CC(N)=O)C(N)=O [compound 4, SerPheLysAsn-NH2] (H-SFKN-NH2) .
Response: 6.93
